Measured values drawn from the supplement of paper PMC4862054 for this set.

test system: MDA-MB-231; assay: normalised response (% of control), CellTiter-Glo; higher = more viable cells (100 = DMSO, 0 = benzethonium chloride kill control); conditions: incubation time: 72 h
Reported Property: normalised response (%)
Your answer should be a plain number; it is taken to be in %.

In: Which normalised response value belongs to Clc1ccc(C(c2ccccc2Cl)C(Cl)Cl)cc1 (centres undefined) [Mitotane] (1000 nM) ?
Out: 101

In: Using the record for CN(C)C/C=C/C(=O)Nc1cc2c(Nc3ccc(F)c(Cl)c3)ncnc2cc1O[C@H]1CCOC1 [Afatinib] (100 nM) , report its normalised response.
Out: 103

In: Need normalised response, item Nc1ccn([C@@H]2O[C@H](CO)[C@@H](O)[C@@H]2O)c(=O)n1 [Cytarabine] (1000 nM)
Out: 86.8

In: Field request: normalised response | item: CN1CC[C@H](c2c(O)cc(O)c3c(=O)cc(-c4ccccc4Cl)oc23)[C@H](O)C1 [Alvocidib] (1000 nM)
Out: 3.01

In: Given the compound COc1cccc2cc(-c3nc([C@H]4CC[C@H](C(=O)O)CC4)n4ncnc(N)c34)[nH]c12 [OSI-027] (1 nM) , what is its reported normalised response?
Out: 93.9

In: Look up normalised response: Cc1ccc(F)c(NC(=O)Nc2ccc(-c3cccc4[nH]nc(N)c34)cc2)c1 [Linifanib] (1 nM)
Out: 106

In: Name the recorded normalised response for O=C(c1ccc(C(=O)N2CCC(N3CCCC3)CC2)c(Nc2ccccc2)c1)N1CCC(N2CCCC2)CC1 [UNC1215] (3000 nM) .
Out: 91.2

In: For Nc1nc(Cl)nc2c1ncn2[C@H]1C[C@H](O)[C@@H](CO)O1 [Cladribine] (1 nM) , what is its reported normalised response?
Out: 100

In: Which value of normalised response has been reported for O=C(c1ccc(C(=O)N2CCC(N3CCCC3)CC2)c(Nc2ccccc2)c1)N1CCC(N2CCCC2)CC1 [UNC1215] (30 nM) in the records?
Out: 90.2

In: // normalised response lookup, key: COc1cccc2cc(-c3nc([C@H]4CC[C@H](C(=O)O)CC4)n4ncnc(N)c34)[nH]c12 [OSI-027] (10 nM)
Out: 96

In: Given the compound C=CC[C@@H]1/C=C(\C)C[C@H](C)C[C@H](OC)[C@H]2O[C@@](O)(C(=O)C(=O)N3CCCC[C@H]3C(=O)O[C@H](/C(C)=C/[C@@H]3CC[C@@H](O)[C@H](OC)C3)[C@H](C)[C@@H](O)CC1=O)[C@H](C)C[C@@H]2OC [Tacrolimus] (1 nM) , what is its reported normalised response?
Out: 99.3

In: I have this compound here, CC[C@]1(O)C[C@@H]2CN(CCc3c([nH]c4ccccc34)[C@@](C(=O)OC)(c3cc4c(cc3OC)N(C)[C@H]3[C@@](O)(C(=O)OC)[C@H](OC(C)=O)[C@]5(CC)C=CCN6CC[C@]43[C@@H]65)C2)C1 [Vinblastine] (100 nM) , and I need its recorded normalised response.
Out: 40.1

In: I am curious: what normalised response value has been reported for CS(=O)(=O)c1ccc(C(=O)Nc2ccc(Cl)c(-c3ccccn3)c2)c(Cl)c1 [Vismodegib] (1 nM) ?
Out: 95.5

In: # normalised response lookup, item OC[C@H]1O[C@@H](n2cnc3c2N=CNC[C@H]3O)C[C@@H]1O [Pentostatin] (1 nM)
Out: 98.8

----------
system: HCC1599; test: normalised response (% of control), CellTiter-Glo; higher = more viable cells (100 = DMSO, 0 = benzethonium chloride kill control); conditions: incubation time: 72 h
Give measured normalised response for each item. Keep answers brief.
Provide only the numeric value, understood in %.

In: Suppose we examine the compound Nc1nc(Cl)nc2c1ncn2[C@H]1C[C@H](O)[C@@H](CO)O1 [Cladribine] (100 nM) ; what normalised response value has been reported?
Out: 112

In: Give its normalised response value. Item: C[C@]1(c2nc3c(C(N)=O)cccc3[nH]2)CCCN1 [Veliparib] (1000 nM)
Out: 104

In: Name the reported normalised response value associated with the compound COc1cccc2cc(-c3nc([C@H]4CC[C@H](C(=O)O)CC4)n4ncnc(N)c34)[nH]c12 [OSI-027] (1 nM)
Out: 101

In: normalised response lookup needed for C[C@]1(c2nc3c(C(N)=O)cccc3[nH]2)CCCN1 [Veliparib] (1 nM) , thanks.
Out: 96.4

In: Fill in the blank: the reported normalised response of C[C@]1(c2nc3c(C(N)=O)cccc3[nH]2)CCCN1 [Veliparib] (10 nM) is ____.
Out: 92.1

In: // normalised response lookup, key: CC(=O)O[C@]1(C(C)=O)CC[C@H]2[C@@H]3C=C(C)C4=CC(=O)CC[C@]4(C)[C@H]3CC[C@@]21C [Megestrol acetate] (10 nM)
Out: 105

In: Quick one: normalised response for COc1cccc2cc(-c3nc([C@H]4CC[C@H](C(=O)O)CC4)n4ncnc(N)c34)[nH]c12 [OSI-027] (10 nM) ?
Out: 92.7

In: State the recorded normalised response for this entry: Nc1ccn([C@@H]2O[C@H](CO)[C@@H](O)[C@@H]2O)c(=O)n1 [Cytarabine] (1 nM)
Out: 108

----------
system: CAL-51; test: normalised viability (% of control), CellTiter-Blue; higher = more viable cells (about 100 = DMSO control); details: 10 nM; incubation time: 72 h
Can you tell me normalised viability for the items I'm about to list?
Answer with a number only, understood to be in %.

In: Lab request: please report normalised viability under test system CAL-51 for CN(C)C/C=C/C(=O)Nc1cc2c(Nc3ccc(F)c(Cl)c3)ncnc2cc1O[C@H]1CCOC1
Out: 107

In: Requested read-out normalised viability, target or system CAL-51, entry C=CCNC1=C2C[C@@H](C)C[C@H](OC)[C@H](O)[C@@H](C)/C=C(\C)[C@H](OC(N)=O)[C@@H](OC)/C=C\C=C(/C)C(=O)NC(=CC1=O)C2=O
Out: 118

In: Which normalised viability is reported with CAL-51 for this entry: CS(=O)(=O)c1ccc(C(=O)Nc2ccc(Cl)c(-c3ccccn3)c2)c(Cl)c1 ?
Out: 103

In: What measured normalised viability is associated with OC[C@H]1O[C@@H](n2cnc3c2N=CNC[C@H]3O)C[C@@H]1O on CAL-51?
Out: 88.4

In: Item: COc1cccc2cc(-c3nc([C@H]4CC[C@H](C(=O)O)CC4)n4ncnc(N)c34)[nH]c12 Test system: CAL-51 Read-out: normalised viability Value: ?
Out: 95.4

In: Give recorded normalised viability with CAL-51 for the following compound: C=CC[C@@H]1/C=C(\C)C[C@H](C)C[C@H](OC)[C@H]2O[C@@](O)(C(=O)C(=O)N3CCCC[C@H]3C(=O)O[C@H](/C(C)=C/[C@@H]3CC[C@@H](O)[C@H](OC)C3)[C@H](C)[C@@H](O)CC1=O)[C@H](C)C[C@@H]2OC
Out: 101

In: Notebook entry, CAL-51 assay: normalised viability of CN1CC[C@H](c2c(O)cc(O)c3c(=O)cc(-c4ccccc4Cl)oc23)[C@H](O)C1 = ?
Out: 103

----------
Give normalised response for every item shown.
tested on: CAL-148; assay: normalised response (% of control), CellTox Green; higher = less cell death (100 = DMSO, 0 = benzethonium chloride kill control); conditions: incubation time: 72 h
Just the number in %, nothing appended.

In: # lookup: normalised response of C=CCNC1=C2C[C@@H](C)C[C@H](OC)[C@H](O)[C@@H](C)/C=C(\C)[C@H](OC(N)=O)[C@@H](OC)/C=C\C=C(/C)C(=O)NC(=CC1=O)C2=O [Tanespimycin] (100 nM)
Out: 71.8

In: Data request, read-out normalised response, for COc1cccc2c1C(=O)c1c(O)c3c(c(O)c1C2=O)C[C@@](O)(C(=O)CO)C[C@@H]3O[C@H]1C[C@H](N)[C@H](O)[C@H](C)O1 [Doxorubicin] (1000 nM)
Out: 66.4

In: Fill blank: measured normalised response of the compound C[C@]1(c2nc3c(C(N)=O)cccc3[nH]2)CCCN1 [Veliparib] (1000 nM) is ____.
Out: 105

In: Which measured normalised response value corresponds to S=c1[nH]cnc2nc[nH]c12 [Mercaptopurine] (10000 nM) ?
Out: 96.1

In: Which measured normalised response value corresponds to S=c1[nH]cnc2nc[nH]c12 [Mercaptopurine] (100 nM) ?
Out: 95.9

In: normalised response for CN1CC[C@H](c2c(O)cc(O)c3c(=O)cc(-c4ccccc4Cl)oc23)[C@H](O)C1 [Alvocidib] (100 nM) ?
Out: 103

In: What value of measured normalised response is listed for CN1CCC(COc2cnc(-c3cccc(Cn4nc(-c5cccc(C#N)c5)ccc4=O)c3)nc2)CC1 (1000 nM) ?
Out: 103
